# Tested on: Cytokinin-dependent tobacco callus Nicotiana tabacum L. cv. Wisconsins 38
# assay-explanation: Tobacco callus bioassay for cytotoxicity (herbicidal activity)
# Assay type: cell-based
# assay-conditions: Nicotiana tabacum, 672 h, read-out: 10^−6 M BAP IC50, 10^−6 M 6-benzylaminopurine, four weeks
pIC50: −log10 of the molar value.
Would you please tag the item Satisfied when its pIC50 is 5 or above, and Not satisfied when it is below?

Please indicate if the recorded pIC50 for Cc1n[nH]c2c(NCc3ccccc3)nc(N[C@@H](CO)C(C)C)nc12 meets or exceeds 5.
Not satisfied

Please indicate if the recorded pIC50 for Cc1n[nH]c2c(NCc3ccccc3)nc(NCCN)nc12 [2-aminoethylamino; benzylamino; methyl] meets or exceeds 5.
Not satisfied

Please indicate if the recorded pIC50 for CC[C@H](CO)Nc1nc(Nc2ccc(Cl)cc2)c2[nH]nc(C(C)C)c2n1 meets or exceeds 5.
Satisfied

Please indicate if the recorded pIC50 for CC(C)c1n[nH]c2c(NCc3ccccc3)nc(N[C@@H](CO)C(C)C)nc12 meets or exceeds 5.
Not satisfied

Please indicate if the recorded pIC50 for CC(C)c1n[nH]c2c(NCc3c(N)cccc3Cl)nc(N[C@@H](CO)C(C)C)nc12 meets or exceeds 5.
Satisfied

Please indicate if the recorded pIC50 for CC(C)c1n[nH]c2c(Nc3ccc(Br)cc3)nc(N[C@@H](CO)C(C)C)nc12 meets or exceeds 5.
Not satisfied

Please indicate if the recorded pIC50 for CC[C@H](CO)Nc1nc(Nc2ccccc2)c2[nH]nc(C(C)C)c2n1 meets or exceeds 5.
Satisfied

Please indicate if the recorded pIC50 for Cc1n[nH]c2c(NCc3ccccc3)nc(NC3CCC(N)CC3)nc12 (stereo not shown) meets or exceeds 5.
Not satisfied

Please indicate if the recorded pIC50 for CC[C@H](CO)Nc1nc(Nc2cc(N)cc(Cl)c2)c2[nH]nc(C(C)C)c2n1 meets or exceeds 5.
Satisfied

Please indicate if the recorded pIC50 for CC[C@H](CO)Nc1nc(NCc2cccc(OC(C)=O)c2)c2[nH]nc(C(C)C)c2n1 meets or exceeds 5.
Not satisfied

Please indicate if the recorded pIC50 for CC(C)c1n[nH]c2c(Nc3cccc(Cl)c3)nc(NC3CCC(N)CC3)nc12 (stereo not shown) meets or exceeds 5.
Not satisfied

Please indicate if the recorded pIC50 for CC(C)c1n[nH]c2c(Nc3cc(N)cc(Cl)c3)nc(N[C@@H](CO)C(C)C)nc12 meets or exceeds 5.
Satisfied

Please indicate if the recorded pIC50 for CC(C)c1n[nH]c2c(NCc3ccccc3)nc(NCCN)nc12 [Example 14] meets or exceeds 5.
Not satisfied

Please indicate if the recorded pIC50 for CC(C)c1n[nH]c2c(Nc3ccc(N)c(Cl)c3)nc(N[C@@H](CO)C(C)C)nc12 meets or exceeds 5.
Satisfied

Please indicate if the recorded pIC50 for CC(C)c1n[nH]c2c(Nc3cccc(Cl)c3)nc(NC3CCCCC3N)nc12 (stereo not shown) meets or exceeds 5.
Not satisfied

Please indicate if the recorded pIC50 for CC[C@H](CO)Nc1nc(Nc2ccc(O)c(C(=O)O)c2)c2[nH]nc(C(C)C)c2n1 meets or exceeds 5.
Not satisfied

----------
# Test system: PHA-stimulated lymphocytes (PBMC)
# assay-explanation: Proliferation of PHA-stimulated lymphocytes (PBMC), flow cytometric cell count
# Type: cell-based, human
# assay-conditions: Homo sapiens, Lymphocyte; 96 hours, IL-2
Could you please report measured pIC50 for the items listed next?
Please keep in mind that pIC50 is minus log10 of the molar concentration; only the number is needed.

State pIC50 (PHA-stimulated lymphocytes (PBMC)) of CC(C)c1n[nH]c2c(NCc3ccccc3)nc(NCCCO)nc12 .
5.05

State pIC50 (PHA-stimulated lymphocytes (PBMC)) of CCCCCCNc1nc(NC(CO)c2ccccc2)c2[nH]nc(C(C)C)c2n1 (stereo not drawn) .
4.74

State pIC50 (PHA-stimulated lymphocytes (PBMC)) of CC(C)c1n[nH]c2c(SCc3ccccc3)nc(NCCCO)nc12 .
4.74

State pIC50 (PHA-stimulated lymphocytes (PBMC)) of CCC(CO)Nc1nc(NCc2ccc(O)c(O)c2)c2[nH]nc(C(C)C)c2n1 (stereo not drawn) .
5.52

State pIC50 (PHA-stimulated lymphocytes (PBMC)) of CCC(CO)Nc1nc(NCc2ccc(O)c(O)c2)c2ncn(C(C)C)c2n1 (stereo not drawn) .
5.05

State pIC50 (PHA-stimulated lymphocytes (PBMC)) of CC(C)c1n[nH]c2c(NC(CO)c3ccccc3)nc(N3CCOCC3)nc12 (stereo not drawn) .
4.70

Ref: patent US7745450B2
